# test-target: HIV-1 pseudovirus X1193_c1 (HIV-1)
# experiment: cell-based or functional assay
Response field label takes fulfilled when IC50 (neutralization in TZM.bl cells) is strictly below 0.09 µg/mL and not fulfilled in all other cases.

Some solved cases for reference:
[[record]]
binder = "MS-74 (antibody, V domains shown) VH: QVQLVQSGPEVRKPGTSVKVSCKAPGNTLKTYDLHWVRSVPGQGLQWMGWISHEGDKKVIVERFKAKVTIDWDRSTNTAYLQLSGLTSGDTAVYYCAKGSKHRLRDYALYDDDGALNWAVDVDYLSNLEFWGQGTAVTVSS VL: DFVLTQSPHSLSVTPGESASISCKSSHSLIHGDRNNYLAWYVQKPGRSPQLLIYLASSRASGVPDRFSGSGSDKDFTLKISRVETEDVGVYYCMQGRESPWTFGQGTKVDIKR"
discrete_label = "fulfilled"

[[record]]
binder = "MS-80 (antibody, V domains shown) VH: QVQLVQSGPEVRKPGTSVKVSCKAPGNTLKTYDLHWVRSVPGQGLQWMGWISHEGDKKVIVERFKAKVTIDRDRSTNTAYLQLSGLTSGDTAVYYCAKGSKHRLRDYALYDDDGALNWAVDVDYLSNLEFWGQGTAVTVSS VL: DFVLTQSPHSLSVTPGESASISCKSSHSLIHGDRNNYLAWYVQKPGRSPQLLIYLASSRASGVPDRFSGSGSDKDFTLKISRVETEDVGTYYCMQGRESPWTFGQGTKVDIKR"
discrete_label = "not fulfilled"

[[record]]
binder = "MS-78 (antibody, V domains shown) VH: QVQLVQSGPEVRKPGTSVKVSCKAPGNTLKTYDLHWVRSVPGQGLEWMGWISHEGDKKVIVERFKAKVTIDWDRSTNTAYLQLSGLTSGDTAVYYCAKGSKHRLRDYALYDDDGALNWAVDVDYLSNLEFWGQGTAVTVSS VL: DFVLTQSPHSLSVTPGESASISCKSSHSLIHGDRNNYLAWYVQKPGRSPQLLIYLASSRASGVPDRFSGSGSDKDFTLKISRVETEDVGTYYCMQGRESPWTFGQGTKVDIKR"
discrete_label = "not fulfilled"

[[record]]
binder = "MS-87 (antibody, V domains shown) VH: QVQLVQSGPEVRKPGTSVKVSCKAPGNTLKTYDLHWVRSVPGQGLQWMGWISHEGDKKVIVERFKAKVTITRDRSTNTAYLQLSGLTSGDTAVYYCAKGSKHRLRDYALYDDDGALNWAVDVDYLSNLEFWGQGTAVTVSS VL: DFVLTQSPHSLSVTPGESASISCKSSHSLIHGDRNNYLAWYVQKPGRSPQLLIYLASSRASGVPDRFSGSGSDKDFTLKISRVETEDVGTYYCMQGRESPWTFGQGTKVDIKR"
discrete_label = "not fulfilled"


Consider now this further binder.
INPUT: API: query returns whether the binder falls strictly under 0.09 µg/mL in IC50 (neutralization in TZM.bl cells). Query: MS-82 (antibody, V domains shown) VH: QVQLVQSGPEVRKPGTSVKVSCKAPGNTLKTYDLHWVRSVPGQGLQWMGWISHEGDKKVIVERFKAKVTIDWDRSTNTAYLQLSGLRSGDTAVYYCAKGSKHRLRDYALYDDDGALNWAVDVDYLSNLEFWGQGTAVTVSS VL: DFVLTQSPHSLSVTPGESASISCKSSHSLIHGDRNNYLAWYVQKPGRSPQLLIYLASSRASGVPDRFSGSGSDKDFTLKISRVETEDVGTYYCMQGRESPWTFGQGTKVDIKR
OUTPUT: fulfilled
